assay.system: RgSBP (RUMGNA_02698, solute binding protein)
experiment.summary: Fluorescence spectroscopy of ligand binding to RgSBP
Set-up: species or system R. gnavus ATCC 29149
test.context: titration of 0.5 μM RgSBP, triplicate, hyperbolic fit
property.measured: Kd (µM)
Numbers only; they are read as µM.

Q: Would you kindly share the measured Kd for CC(=O)N[C@H]1C2OC(C(=O)O)(C[C@@H]1O)O[C@@H]2[C@H](O)CO (stereo partly shown) [2,7-anhydro-Neu5Ac] ?
Result: 1.35

Origin of the recorded values: patent US20210254138A1
